system: MS2 coat protein; experiment: apparent KD of MS2 coat protein; higher = weaker reporter binding; conditions: Eterna round: R107; input ligand: arginine 13.2 mM
Readout type: apparent KD of MS2 coat protein (nM)

INSERT INTO results (sequence_input, readout_type, endpoint_result) VALUES
  ('ACUAGUUGUGCAGAUACCAGACAUGAGGAUCACCCAUGUUUGGGAUCUAAUGAUCAUCCUGUCCCUUGGCAGCUGUACAUCUAGA [Omei Theo B Exc v2]', 'apparent KD of MS2 coat protein', 51.9),
  ('ACGCUGCAUAGGAAAACUAUGUAGCGAAAUCGAGGACCGGUACGGCCGCCACUCGUCCUCAACAUGAGGAUCACCCAUGUAAUAA [Mat - Exclusion - Trytophan A - D8]', 'apparent KD of MS2 coat protein', 20.8),
  ('AUCAUGUAAUCAGAUACCAGACAUCUUUUAAUACAUAUUACAUGAGGAUCACCCAUGUUGGUCCCUUGGCAGCUGAAAUAUUUUU [JR_Nu_SSTheophyB_Sub027]', 'apparent KD of MS2 coat protein', 128),
  ('GGACUAACCAGAAGGAGCGGCACGCAGAAACUGCAAAAUCCUCCACACGAGGAUCACCCGUGUCAGGUAGGUCGCUGGUUAGUCG', 'apparent KD of MS2 coat protein', 45.8),
  ('AUCGUACCUGAUGAUACCAGCAUGUGCUCGUAACAUGAGGAUCACCCAUGUGAUCAGUGAUGCCCUUGGCAGCAUGAUCGGUGCA [Same State - Theophylline B (Freestyle 18)]', 'apparent KD of MS2 coat protein', 94),
  ('AGAUAACAUGGUUUAAUAAGUUAAACUGAUACCAGUGUAUAUAAUCACCCUUGGCAGCAGCAACAUGAGGAUCACCCAUGUAAUA [JR_SSTheophyA_Sub013]', 'apparent KD of MS2 coat protein', 16.2);

====

system: MS2 coat protein; assay: apparent KD of MS2 coat protein; designed switch direction (-1 OFF switch, 1 ON switch): -1; higher = weaker reporter binding; conditions: Eterna round: R95; input ligand: microRNA oligo, concentration not stated
Below is a list of entries, each paired with its recorded apparent KD of MS2 coat protein value.
Readout type: apparent KD of MS2 coat protein

INSERT INTO results (sequence_input, endpoint_result) VALUES
  ('CCGGAAAUGAAGGAUAUAGGUGUCGAUAGACACCUAGAAGGUCAUACAUGAGGAUCACCCAUGUGUCCUACCGG [Fiskers Ex 6 - 7] (puzzle: Exclusion 6)', '13.9 nM'),
  ('UAUAAUACAUAGGAUAUCGAAAUAAUCAUUUAACGAGAAGGAUGAACAUGAGGAUCACCCAUGUGGUAUCAUGG [Mat - Exclusion 6 - JL Mod - D11] (puzzle: Exclusion 6)', '328 nM'),
  ('GGUCGGCGAGGAUAUACAUGAGGAUCACCCAUGUGAUAUAGUGCACGCGUACGUGUACGUAGAAGGCGCUGACG [JL-ex3-3.26 salish99 mod] (puzzle: Exclusion 3)', '11.2 nM'),
  ('UAUAGACAUGAGGAUCACCCAUGUGAGGAUAUGUACAACAACAAGCCGGAAGCGGAAUACAGAAGGCACAAAUA [JR_Exclusion1_Sub029] (puzzle: Exclusion 1)', '35.7 nM'),
  ('CUUGUACAUGAGGAUCACCCAUGUUAGGAUAUCUCGCCGUCGGCUUGCCGACGGUAUUAGAGAAGGGACUUGGG [JL Tixe mod 6] (puzzle: Exclusion 1)', '50.8 nM'),
  ('UUUUAACAUGAGGAUCACCCAUGUGAGGAUAUCGAUUUUUUUAUUAAUAUUAAUAAAACGAGAAGGCACAUUUU [JMF 19] (puzzle: Exclusion 1)', '73.5 nM');

====

In this section we review reported apparent KD of K4 kissing-loop reporter values for a set of sequences.
system: K4 kissing-loop RNA reporter; experiment: apparent KD of K4 kissing-loop reporter; higher = weaker reporter binding; conditions: Eterna round: R107; input ligand: none;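 also: bound reporter read as fluorescence of individual clusters on recovered sequencing chips by microscopy, with normalized cluster intensities fitted with a binding model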
Readout type: apparent KD of K4 kissing-loop reporter (nM)

INSERT INTO assay_data (sequence_input, endpoint_result) VALUES
  ('UUUUAUAACCGAAGGAGCGCGUGGGCGCAGUGAUGUUGCGCCCGACAUCACUUCAACUUAACGCAGGUAGGUCGCGGUUUUAAUG [Arginine B (Excl) V3]', 181),
  ('AUUCCCACUUAAGGAUAUCAAGGAGUGAUGUUCCAAAUGGUCCACGUCGCGGCUCUCCGGGCACAAUGAGAAGGUAAAGCUGGGU [theeternabot_exclusion_KL_FMN_B_43]', 276),
  ('CCAAUCUUUUACGAUACCAGUCUAAUAUAUUUAAUCAAAACCCUCGCCGAGUGAUGUUCGGACCCUUGGCAGCGUUUGCGAGAGG [xssgstkmullin]', 543),
  ('AACUGGGUUCGUGAUACCAGCUCACACAUGAGUGAUGUUGAUGUAGUGGGCAAAAUGUGGAGCCCUUGGCAGCACUGUGACCACG [XTheo-B3]', 411),
  ('GUAUAUCGAGUGAUGUUCGAAUGCUCCGAAGGAGCGCGGAUAAUCGCAGGUAGGUCGCGGAGCAGUUGCUGAGGAAGCUCAGUAU [Arg A SS t11]', 211),
  ('UGUCAUUGGUCUGAUACCAGUACCCUUGGCAGCCGAGGAGUGAUGUUCCAAGGAUACCAGUACCCUUGGCAGCAGACCGAUGACU [TheoBS 30 #DoubleAptamer #SwitchBubble]', 186);

====

tested on: MS2 coat protein; test: apparent KD of MS2 coat protein, switch ON state; designed switch direction (-1 OFF switch, 1 ON switch): 1; higher = weaker reporter binding; conditions: FMN input: 0 or 200 uM; Eterna round: R93 (includes R88 designs)
Readout type: apparent KD of MS2 coat protein (nM)

INSERT INTO assay_data (sequence_input, readout_type, endpoint_result) VALUES
  ('GAAAAACAUGAGGAUCACCCAUGUAGAAAUAUGGGAGGAUAUACAAAGACGUAAGUCAAAGUAGAAGGCCUAAAAG [Mat - Same State 1 - Eli mod - D8]', 'apparent KD of MS2 coat protein', 19.1),
  ('AUGGUGUAGGUACAGGAUAUGUUGCUCGUAACAUGAGGAUCACCCAUGUACCUAUGAGAUUAAAUGCAGAAGGGUGCACACCACG [Usbivece]', 'apparent KD of MS2 coat protein', 70.1),
  ('AGCUAACAUGAGGAUCACCCAUGUCCGCUAAACCAAGGAUAUGGGACGAAUAAAAUCGGACCAGAAGGUGGCCGAC [Qureaed]', 'apparent KD of MS2 coat protein', 218),
  ('AGGAAACAUGAGGAUCACCCAUGUAAAAAUAUGGGAGGAUAUACAAAGACGAAAGUGAGAGUAGAAGGCCUAAAAG [Garnet 18]', 'apparent KD of MS2 coat protein', 35.6),
  ('AUAAAACAUGAGGAUCACCCAUGUAGAAAUAUGGGAGGAUAUACUAGAUCGAAAGAUCUAGUAGAAGGCCUAAAAG [JL Mod of Eli 1]', 'apparent KD of MS2 coat protein', 27.6),
  ('AAUACACAUAGUCAGGAUAUCAAAACUAAGACAUGAGGAUCACCCAUGUAAUAAGUAAAAGUAAAUGAGAAGGGACAGGGUGACC [JR_SS002_Sub404]', 'apparent KD of MS2 coat protein', 130);

====

tested on: MS2 coat protein; test: apparent KD of MS2 coat protein; designed switch direction (-1 OFF switch, 1 ON switch): 1; higher = weaker reporter binding; details: input ligand: FMN 200 uM
Each entry below lists one item and its recorded apparent KD of MS2 coat protein value.
Readout type: apparent KD of MS2 coat protein (µM)

INSERT INTO assay_data (sequence_input, readout_type, endpoint_result) VALUES
  ('AGUCCAGCCUGAGCUGGACAAAUGCAAGUACAUGAGGAUCACCCAUGUUCAUGUACAAGCUUUUUGCUCGUCUUAAA [JL zipper 59] (Eterna round: R96, puzzle: Sensor for hsa-mir-208a)', 'apparent KD of MS2 coat protein', 0.853),
  ('UGAUCGCUUGGAGGAUAUCCAACUAUCCUAGUUGGAGAAGGCCAAGCUACAGAGCUAAGCUUGGAAGUCACUUCGAAUCAACAC [pwkr ssNG1 F9.4] (Eterna round: R96, puzzle: Same State NG 1)', 'apparent KD of MS2 coat protein', 0.00223),
  ('AUAAUAAGGACAGGAUAUGGGAAAGGAAGUGUACUAGAAGGGUCGAGAAGACCAGAACAUGAGGAUCACCCAUGUGAUGGGAAA [PowerStrip SSNG 1.28] (Eterna round: R96, puzzle: Same State NG 1)', 'apparent KD of MS2 coat protein', 0.0217),
  ('GUAGCAUACCGAGGAUAUUCACAUGAGGAUCACCCAUGUAUUAAUAGGCCACAUUAGUGGCCUUGGGAGAAGGCGGAAUGCUAC [Xeonanis - 20 Mod48] (Eterna round: R96, puzzle: Same State NG 2)', 'apparent KD of MS2 coat protein', 0.0108),
  ('GCUACAUGAGGAUCACCCAUGUGUGCGUGGGAGUGAGUGGCUUAGGAUAUCUAUGACUUGAGUUGAGAGAAGGAGGAUUGCUGU [SS-NG3-LRO12] (Eterna round: R96, puzzle: Same State NG 3)', 'apparent KD of MS2 coat protein', 0.105);
